Values compiled from patent US20250282868A1.

Biological target: T1, human TREM2 (human, UniProt Q9NZC2 19-230)
T1 sequence: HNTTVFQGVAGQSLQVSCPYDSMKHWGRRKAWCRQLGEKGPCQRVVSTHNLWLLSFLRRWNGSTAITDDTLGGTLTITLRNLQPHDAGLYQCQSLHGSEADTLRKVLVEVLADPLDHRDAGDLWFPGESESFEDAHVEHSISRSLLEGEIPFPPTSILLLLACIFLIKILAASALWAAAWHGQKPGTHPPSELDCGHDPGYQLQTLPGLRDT
Assay: cell-based or functional assay
measurement_type: Fold over isotype control at 66 nM (fold)

binder	measurement_type	output_unit	reported_result
EOS004283 (antibody, human IgG1, kappa, V domains shown) VH: QVQLVQSGAEVKKPGSSVKVSCKASGGTFAQYAISWVRQAPGQGLEWMGVIIPDSGTANYAQKFQGRVTITADESTSTAYMELSSLRSEDTAVYYCARTQENTIFDIWGQGTLVTVSS VL: EIVLTQSPATLSLSPGERATLSCRASQSVSSYLAWFQQKPGQAPRLLIYDASNRATGIPARFSGSGSGTDFTLTISSLEPEDFAVYYCQQDYEWPITFGGGTKVEIKR	Fold over isotype control at 66 nM	fold	0.267
EOS006164 (antibody, V domains shown) VH: EVQLVESGGGLVQPGRSLRLSCTASGFTFDDYTMSWFRQAPGKGLEWVGFIGSKAYSATTEYTASVKGRFTISRDGSKSIAYLQMNSLKTEDTAVYYCARGKRYSYTYWTPAFDVWGQGTMVTVSS VL: DIQMTQSPSSLSASVGDRVTITCQASQDITNYLNWYQQKPGKAPKLLIYDASNLETGVPSRFSGSGSGTDFTFTISSLQPEDIATYYCQEYDSYITFGGGTKVEIK	Fold over isotype control at 66 nM	fold	1.16
EOS006171 (antibody, V domains shown) VH: QVQLVESGGGLVKPGGSLRLSCAASGFTFSDYYMSWIRQAPGKGLEWVSYISSSGSTIYYADSVKGRFTISRDNAKNSLYLQMNSLRAEDTAVYYCARLGGYYSLGPMDVWGQGTTVTVSS VL: EIVLTQSPATLSLSPGERATLSCRASQSVSSYLAWYQQKPGQAPRLLIYDASNRATGIPARFSGSGSGTDFTLTISSLEPEDFAVYYCQQDSAFPFTFGGGTKVEIK	Fold over isotype control at 66 nM	fold	2.4
